Molecular target: Ribosomal protein S6 kinase alpha-4 (Homo sapiens);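 further: mean inhibition of MSK2, GSK PKIS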
Settings: at 1 µM
endpoint-name: inhibition (%)

1) Cc1ccc(NC(=O)c2ccnc(N3CCCC3)c2)cc1-c1ccc(C(=O)NCC2CC2)cc1 ... 8.63
2) CCn1c(-c2nonc2N)nc2cncc(C(=O)N3CCNCC3)c21 ... 4.71
3) O=C(Nc1n[nH]c2nc(-c3ccco3)c(Br)cc12)C1CC1 ... 2.64
4) CC1=C(C(=O)Nc2ccc3[nH]ncc3c2)C(c2ccc3ccccc3c2)CC(=O)N1 (centres undefined) ... 34.1
5) CS(=O)(=O)CCNCc1ccc(-c2ccc3ncnc(Nc4ccc(OCc5ccccc5)c(Cl)c4)c3c2)o1 ... 1.73
6) CCn1c(-c2nonc2N)nc2cncc(C(=O)N3CC[C@H](N)C3)c21 ... 74.3
7) CS(=O)(=O)CCN(CC#N)Cc1ccc(-c2ccc3ncnc(Nc4ccc(OCc5cccc(F)c5)c(Cl)c4)c3c2)o1 ... 1.76
8) COc1cc(C=NNc2ncnc3c2cnn3-c2ccccc2)ccc1O ... 4.55
9) CCn1c(-c2nonc2N)nc2cnc(Oc3cccc(NC(=O)c4ccc(OCCN5CCOCC5)cc4)c3)cc21 ... 76.7

* * *

Biological target: Protein-tyrosine kinase 2-beta (Homo sapiens) (UniProt Q14289);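 further: reported as mean percent inhibition of PYK2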
Sequence (Q14289 whole entry, looked up): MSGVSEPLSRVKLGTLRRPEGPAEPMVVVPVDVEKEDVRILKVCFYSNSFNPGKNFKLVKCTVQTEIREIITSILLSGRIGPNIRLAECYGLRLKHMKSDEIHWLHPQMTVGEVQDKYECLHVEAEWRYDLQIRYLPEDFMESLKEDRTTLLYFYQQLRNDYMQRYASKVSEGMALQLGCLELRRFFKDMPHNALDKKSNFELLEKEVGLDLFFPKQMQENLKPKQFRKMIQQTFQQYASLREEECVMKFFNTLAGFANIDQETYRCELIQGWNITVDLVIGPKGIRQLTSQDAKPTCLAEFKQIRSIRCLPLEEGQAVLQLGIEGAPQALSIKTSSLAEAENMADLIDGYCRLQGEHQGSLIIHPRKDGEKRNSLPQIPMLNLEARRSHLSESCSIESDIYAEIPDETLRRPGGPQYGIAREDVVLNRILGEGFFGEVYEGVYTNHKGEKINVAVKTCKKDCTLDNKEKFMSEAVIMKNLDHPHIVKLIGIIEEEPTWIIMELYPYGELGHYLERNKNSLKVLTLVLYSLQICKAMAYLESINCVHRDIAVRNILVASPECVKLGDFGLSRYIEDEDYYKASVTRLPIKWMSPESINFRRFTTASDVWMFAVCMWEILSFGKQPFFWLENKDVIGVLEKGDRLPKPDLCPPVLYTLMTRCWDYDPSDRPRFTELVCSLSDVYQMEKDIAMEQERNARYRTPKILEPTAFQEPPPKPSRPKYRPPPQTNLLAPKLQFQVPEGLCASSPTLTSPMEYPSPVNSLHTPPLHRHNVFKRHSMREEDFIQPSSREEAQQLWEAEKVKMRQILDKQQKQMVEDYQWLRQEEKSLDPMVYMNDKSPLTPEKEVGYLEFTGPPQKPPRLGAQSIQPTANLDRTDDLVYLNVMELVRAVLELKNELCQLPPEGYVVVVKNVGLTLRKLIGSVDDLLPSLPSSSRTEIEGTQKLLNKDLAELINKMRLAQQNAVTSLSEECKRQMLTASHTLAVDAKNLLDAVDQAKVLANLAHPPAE
Settings: at 0.1 µM
endpoint-name: inhibition (%)

1) O=C1Nc2ccc(C(=O)c3ccco3)cc2C1=Cc1cc(Cl)c(O)c(Cl)c1 ... 15
2) CC1=C(C(=O)Nc2ccc3[nH]ncc3c2)C(c2ccc3ccccc3c2)CC(=O)N1 (stereo not given) ... 3.97
3) Cc1ccc(C(=O)NC2CCCCC2)cc1-c1ccc(C(=O)NCC2CC2)cc1 ... 3.32
4) O=C1NC(=O)C(N2CCc3ccccc32)=C1c1ccc(Cl)cc1 ... 8.33
5) CCn1c(-c2nonc2N)nc2cnc(Oc3cccc(NC(=O)c4ccc(OCCN5CCOCC5)cc4)c3)cc21 ... 4.56

* * *

Molecular target: Casein kinase II subunit alpha (Homo sapiens);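 further: reported value is the mean CK2 inhibition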
Conditions: at 1 µM
endpoint-name: inhibition (%)

1) CCn1c(-c2nonc2N)nc2ccncc21 ... -5.18
2) Cn1cc(C=C2C(=O)Nc3cccnc32)c2ccccc21 ... 6.39
3) CCn1c(-c2nonc2N)nc2c(N3CCCC3)nccc21 ... -0.49
4) Nc1nc(-c2ccccn2)c(-c2ccc3ncccc3n2)s1 ... 10.1
5) COc1cc2c(cc1Nc1nc(N3CCc4ccccc43)c3cc[nH]c3n1)N(C(=O)CN(C)C)CC2 ... -9.3
6) COc1cc2ncn(-c3cc(O[C@H](C)c4ccccc4Cl)c(C(N)=O)s3)c2cc1OC ... 19.5
7) COc1ccc(-c2nn3ncccc3c2-c2ccnc(Nc3ccc(Cl)c(C(F)(F)F)c3)n2)cc1 ... 8.2
8) Cc1nn(C)c2cc(N(C)c3ccnc(Nc4cccc(S(N)(=O)=O)c4)n3)ccc12 ... 1.94
9) COC(=O)Nc1nc2cc(Oc3ccc(NC(=O)Nc4cccc(C(=O)O)c4)cc3)ccc2[nH]1 ... 8.32
10) CN(C)c1cc2c(Nc3ccc4nc(Cc5ccccc5)[nH]c4c3)ncnc2cn1 ... 1.45
11) Cc1nnc(-c2ccc(C)c(-c3ccc(C(=O)Nc4cccc(C#N)c4)cc3)c2)o1 ... 6.5
12) Cc1cccc(-c2n[nH]cc2-c2ccc3ncccc3n2)n1 ... 4.82
13) CCN1CCC(CC(=O)Nc2n[nH]c3nc(-c4cccs4)c(Br)cc23)CC1 ... 4.38
14) NC(=O)c1ccc(-c2nc(-c3ccccn3)c(-c3ccc4c(c3)OCO4)[nH]2)cc1 ... 4.61
15) COC(=O)Nc1nc2cc(Oc3cccc(NC(=O)Nc4cc(C(F)(F)F)ccc4F)c3)ccc2[nH]1 ... -0.84
16) O=C1NC(=O)C(N2CCc3ccccc32)=C1c1ccc(Cl)cc1 ... -1.39
17) Nc1nc(-c2ccc3c(c2)C(=Cc2cc(Br)c(O)c(Br)c2)C(=O)N3)cs1 ... 24.1
18) CCn1c(-c2nonc2N)nc2cncc(C(=O)N3CCNCC3)c21 ... 2.82
19) COc1ccc(-c2coc3ncnc(N)c23)cc1 ... -2.3
20) COc1cc(C)c(NC(=O)CN(C)C)cc1Nc1nc(Nc2cccc(F)c2C(N)=O)c2cc[nH]c2n1 ... 35.5
21) NC(=O)c1cccc(Nc2nccc(Nc3cccc4[nH]ncc34)n2)c1 ... 3.56
22) Nc1ncnc2occ(-c3ccc(NC(=O)Nc4cccc(C(F)(F)F)c4)cc3)c12 ... 4.76
23) O=C1NC(=O)C(c2ccc(Cl)cc2)=C1Nc1ccc(Cl)c(C(=O)O)c1 ... -2.48

* * *

Target: Protein kinase C alpha type (Homo sapiens);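 further: reported value is the mean inhibition, measured within the GSK PKIS screening panel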
Conditions: at 1 µM
endpoint-name: inhibition (%)

1. Fc1cccc(COc2ccc(Nc3ncnc4cc(-c5ccc[nH]5)sc34)cc2Cl)c1 ... -1.9
2. Fc1cccc(COc2ccc(Nc3ncnc4sc(-c5cccs5)cc34)cc2Cl)c1 ... 0.09
3. O=C(Nc1n[nH]c2nc(-c3ccco3)c(Br)cc12)C1CC1 ... 0.28
4. COC(=O)Nc1nc2cc(Oc3cccc(NC(=O)Nc4cc(C(F)(F)F)ccc4F)c3)ccc2[nH]1 ... 0.96
5. COc1cccc(-n2ncc3c(N/N=C/c4cccc(F)c4)ncnc32)c1 ... -2.41
6. Cc1cc(O)cc(C)c1/C=C/c1cncc(-c2nn[nH]n2)c1 ... -0.54
7. NCc1ccc(-c2nc(-c3ccc(Cl)c(O)c3)c(-c3ccncc3)[nH]2)cc1 ... 2.46
8. CCc1cccc(NC(=O)Nc2ccc(Oc3ccc4nc(NC(=O)OC)[nH]c4c3)cc2)c1 ... 0.72
9. CNC(=O)c1cncc(/C=C/c2c(Cl)cccc2Cl)c1 ... -2.28
10. CC(C)=Cc1cccc2c1/C(=N/Nc1ccc(S(N)(=O)=O)cc1)C(=O)N2 ... 1.29
11. CS(=O)(=O)CCNCc1nc(-c2ccc3ncnc(Nc4ccc(F)c(Cl)c4)c3c2)cs1 ... 0.92
12. Cc1nnc(-c2ccc(C)c(-c3ccc(C(=O)Nc4cccc(C#N)c4)cc3)c2)o1 ... 0.89
13. COc1ccc(-c2nn3ncccc3c2-c2ccnc(Nc3ccc(Cl)c(C(F)(F)F)c3)n2)cc1 ... -0.2
14. COc1cc2c(cc1Nc1nc(N3CCc4ccccc43)c3cc[nH]c3n1)N(C(=O)CN(C)C)CC2 ... 1.9
15. O=C1NC(=O)C(N2CCc3ccccc32)=C1c1ccc(Cl)cc1 ... 1.6
16. COc1cc2ncn(-c3cc(O[C@H](C)c4ccccc4Cl)c(C(N)=O)s3)c2cc1OC ... 0.09
17. N#Cc1c(NC(=O)c2cccc3ccccc23)sc2c1CCCC2 ... 1.22
18. NC(=O)c1cccc(Nc2nccc(Nc3cccc4[nH]ncc34)n2)c1 ... 14.6
19. CS(=O)(=O)Nc1ccc(N/C=C2\C(=O)Nc3ccccc32)cc1 ... 0.61
20. COc1ccc(-c2coc3ncnc(N)c23)cc1 ... 1.92
21. CC1=C(C(=O)Nc2ccc3[nH]ncc3c2)C(c2ccc(Cl)c(Cl)c2)CC(=O)N1 (stereo not given) ... 1.24
22. CCn1c(-c2nonc2N)nc2ccncc21 ... 0.41
23. Nc1nc(-c2ccccn2)c(-c2ccc3ncccc3n2)s1 ... 1.65
24. CC1=C(C(=O)Nc2ccc3[nH]ncc3c2)C(c2ccc3ccccc3c2)CC(=O)N1 (stereo not given) ... 1.61
25. c1cnn2ncc(-c3ccnc(Nc4ccc5c(c4)OCCO5)n3)c2c1 ... 20.4
26. COc1ccc2cc(-c3c(-c4ccncc4)nc(-c4ccc([S+](C)[O-])cc4)n3C)ccc2c1 (stereo not given) ... 0.94
27. Nc1ncnc2occ(-c3ccc(NC(=O)Nc4cc(C(F)(F)F)cc(C(F)(F)F)c4)cc3)c12 ... 0.45
28. CN1CCC(C(=O)Nc2n[nH]c3nnc(-c4ccccc4)cc23)CC1 ... 1.72
29. CCn1c(-c2nonc2N)nc2cnc(Oc3cccc(NC(=O)c4ccc(OCCN5CCOCC5)cc4)c3)cc21 ... 34.1
30. O=C1Nc2ccc(C(=O)c3ccco3)cc2C1=Cc1cc(Cl)c(O)c(Cl)c1 ... 3.32
31. CCCN1CCC=C(c2ccc(Nc3nc(Nc4ccccc4C(N)=O)c4cc[nH]c4n3)c(C)c2)C1 ... 6.13
32. CS(=O)(=O)CCNCc1ccc(-c2ccc3ncnc(Nc4ccc(OCc5ccccc5)c(Cl)c4)c3c2)o1 ... -0.42
33. COc1cc2ncn(-c3cc(OCc4ccccc4Cl)c(C(N)=O)s3)c2cc1OC ... 1.42
34. O=C1NC(=O)C(c2ccccc2Cl)=C1Nc1cccc(O)c1 ... 3.41
35. Nc1nc(-c2ccc3c(c2)C(=Cc2cc(Br)c(O)c(Br)c2)C(=O)N3)cs1 ... 1.51

* * *

Biological target: Phosphorylase b kinase gamma catalytic chain, skeletal muscle/heart isoform (Homo sapiens) (UniProt Q16816);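 further: values are averaged percent inhibition of PHKG1 kinase activity, from the GSK PKIS inhibitor-set screen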
Sequence (Q16816 whole entry, looked up, canonical isoform): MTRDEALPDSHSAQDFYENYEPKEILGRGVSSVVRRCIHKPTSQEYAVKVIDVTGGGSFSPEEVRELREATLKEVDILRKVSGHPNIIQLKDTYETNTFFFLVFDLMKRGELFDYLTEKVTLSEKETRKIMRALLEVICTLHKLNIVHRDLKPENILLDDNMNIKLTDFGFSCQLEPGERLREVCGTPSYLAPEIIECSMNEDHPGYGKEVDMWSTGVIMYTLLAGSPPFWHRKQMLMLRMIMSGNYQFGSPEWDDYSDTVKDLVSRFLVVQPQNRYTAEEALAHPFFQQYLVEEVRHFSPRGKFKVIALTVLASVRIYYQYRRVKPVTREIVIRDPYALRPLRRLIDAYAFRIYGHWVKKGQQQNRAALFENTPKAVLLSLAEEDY
Conditions: at 0.1 µM
Listed here: items and their measured inhibition.
endpoint-name: inhibition (%)

1) COc1cc(C)c(NC(=O)CN(C)C)cc1Nc1nc(Nc2cccc(F)c2C(N)=O)c2cc[nH]c2n1 ... 8.46
2) COc1cc2ncn(-c3cc(O[C@@H](C)c4ccccc4Cl)c(C(N)=O)s3)c2cc1OC ... 5.83
3) CC(=O)Nc1cccc(C#Cc2cncnc2Nc2ccc(OCc3cccc(F)c3)c(Cl)c2)n1 ... 1.84
4) NCc1ccc(-c2nc(-c3ccc(Cl)c(O)c3)c(-c3ccncc3)[nH]2)cc1 ... 0.14
5) CCn1c(-c2nonc2N)nc2cncc(C(=O)N3CCNCC3)c21 ... 3.09
6) c1cnn2ncc(-c3ccnc(Nc4ccc5c(c4)OCCO5)n3)c2c1 ... 5.46
7) N#Cc1c(NC(=O)c2cccc3ccccc23)sc2c1CCCC2 ... 8.32
8) Fc1cccc(COc2ccc(Nc3ncnc4sc(-c5cccs5)cc34)cc2Cl)c1 ... 2.66
9) CCCN1CCC(Oc2cc(Nc3nc(Nc4cccc(F)c4C(N)=O)c4cc[nH]c4n3)c(OC)cc2Cl)CC1 ... 1.4
10) CCn1c(-c2nonc2N)nc2c(N3CCCC3)nccc21 ... 3.74
